Where do the numbers come from? From patent US20260209362A1.

Target: T1, biotinylated recombinant human IL-12Rβ2 (human, UniProt Q99665 24-622, random biotinylated)
T1 construct: Recombinant protein produced in-house; also called hIL-12RB2; human IL-12RB2
T1 sequence: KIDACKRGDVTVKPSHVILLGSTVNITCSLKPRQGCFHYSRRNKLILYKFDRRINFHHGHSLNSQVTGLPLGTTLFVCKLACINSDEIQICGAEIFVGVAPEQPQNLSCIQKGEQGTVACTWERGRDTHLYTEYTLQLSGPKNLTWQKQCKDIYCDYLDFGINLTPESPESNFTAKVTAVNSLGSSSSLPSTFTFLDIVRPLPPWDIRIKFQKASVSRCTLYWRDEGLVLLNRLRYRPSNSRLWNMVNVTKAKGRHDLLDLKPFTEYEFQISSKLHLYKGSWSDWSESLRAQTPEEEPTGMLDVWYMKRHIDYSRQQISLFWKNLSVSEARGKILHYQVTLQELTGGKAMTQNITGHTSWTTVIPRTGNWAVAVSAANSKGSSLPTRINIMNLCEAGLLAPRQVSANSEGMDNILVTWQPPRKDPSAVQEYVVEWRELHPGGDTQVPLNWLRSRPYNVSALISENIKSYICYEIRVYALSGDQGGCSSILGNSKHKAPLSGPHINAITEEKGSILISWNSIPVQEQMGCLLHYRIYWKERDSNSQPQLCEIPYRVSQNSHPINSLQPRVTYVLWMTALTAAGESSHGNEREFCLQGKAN
Assay: ELISA, P.E., biotinylated antigen
Param threshold (8) applies to ELISA hIL-12RB2/control; output Fulfilled when value >= threshold, Not fulfilled when value < threshold.

{"Binder": "anti-IL-12Rβ2 VHH clone 3CRHS99 (clone ID 20427) (VHH, not shown: small tags and cut ends, periplasmic extract) VHH: QVQLQESGGGLVQPGGSLRLSCKASGFTFSTYAMSWVRQAPGKGLEWVSAINSGGLSTDYADSVEGRFTISRDDAKNMLFLQMNSLKAEDTARYYCAKYEDCSDYMCHRDRAGYWGQGTQVTVSS", "Cat": "Not fulfilled"}
{"Binder": "anti-IL-12Rβ2 VHH clone 3CRH28 (clone ID 20380) (VHH, not shown: small tags and cut ends, periplasmic extract) VHH: QVQLQESGGGLVQPGGSLTLSCAASGFTFSSNAMSWVRQAPGKGLEWVSSISSGGGTTYYTDSVKGRFTTARDNAKNTLYLRMNSLKPEDTAVYYCSKSSTGSGSRGQGTQVTVSS", "Cat": "Not fulfilled"}
{"Binder": "anti-IL-12Rβ2 VHH clone 3CRH38 (clone ID 20381) (VHH, not shown: small tags and cut ends, periplasmic extract) VHH: QVQLQESGGGLVQAGGSLVLSCAASGSAALIFLMSWYRQAPGKQRELVAEVSRGGSTTYADSVEGRFTISRDNAKNIVDLQMNSLKPEDTAVYYCKADQNYGDSLRSSWGRGTQVTVSS", "Cat": "Fulfilled"}
{"Binder": "anti-IL-12Rβ2 VHH clone 3CAHS41 (clone ID 20394) (VHH, not shown: small tags and cut ends, periplasmic extract) VHH: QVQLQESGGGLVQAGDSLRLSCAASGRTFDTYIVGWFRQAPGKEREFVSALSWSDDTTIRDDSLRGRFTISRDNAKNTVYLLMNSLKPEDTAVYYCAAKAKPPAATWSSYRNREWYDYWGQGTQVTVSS", "Cat": "Fulfilled"}
{"Binder": "anti-IL-12Rβ2 VHH clone 2CRH80 (clone ID 20371) (VHH, not shown: small tags and cut ends, periplasmic extract) VHH: QVQLQESGGGLVQPGGSLRLSCAASGFTFSTSGMHWFRQAPGKGLEWVSSIGIIVGSSYYASSVKGRFTISRDNAKNTLYLHMNSLKSEDTAVYYCSKDVTGSSRGQGTQVTVSS", "Cat": "Not fulfilled"}
{"Binder": "anti-IL-12Rβ2 VHH clone 3CRH68 (clone ID 20388) (VHH, not shown: small tags and cut ends, periplasmic extract) VHH: QVQLQESGGGLVQPGGSLRLSCTASGSILSIYNMDWYRQVPGNQREWVASITPSGDPYYDGSVKGRFTISRDNAKMMVYLQMNSLKPEDTAVYYCKVPTEKGNYWGQGTQVTVSS", "Cat": "Not fulfilled"}
{"Binder": "anti-IL-12Rβ2 VHH clone 3CAHS52 (clone ID 20396) (VHH, not shown: small tags and cut ends, periplasmic extract) VHH: QVQLQESGGGSVQAGGSLRLSCAASGRTINAYIMGWFRQAPGKEREFVAAVSGSGGSTYYADSVKGRFTISRDNAKNTVNLQMDNLRSEDTDVYYCAATYESVYLQNPGQYDYWGQGTQVTVSS", "Cat": "Fulfilled"}
